system: Plasmodium falciparum; test: Antiplasmodial activity against Plasmodium falciparum 3D7 assessed as inhibition of parasite viability at 100 ug/ml by parasite lactate dehydrogenase assay; type: functional

[
  {
    "TEST_SMILES": "CC(=O)O[C@@H]1CC[C@@]2(C)[C@H](CC[C@@H]3[C@@H]2C[C@H](OC(C)=O)[C@]2(C)[C@@H]([C@H](C)CCC(=O)O)CC[C@@H]32)C1",
    "inhibition at 100 µg/mL / %": 100
  },
  {
    "TEST_SMILES": "C[C@H](CCC(=O)O)[C@H]1CC[C@H]2[C@@H]3CC[C@@H]4C[C@H](O)CC[C@]4(C)[C@H]3CC[C@]12C",
    "inhibition at 100 µg/mL / %": 100
  },
  {
    "TEST_SMILES": "C[C@H](CCC(=O)O)[C@H]1CC[C@H]2[C@@H]3[C@H](O)C[C@@H]4C[C@H](O)CC[C@]4(C)[C@H]3CC[C@]12C",
    "inhibition at 100 µg/mL / %": 98
  },
  {
    "TEST_SMILES": "C[C@H](CCC(=O)O)[C@H]1CC[C@H]2[C@@H]3[C@H](O)[C@H](O)[C@@H]4C[C@H](O)CC[C@]4(C)[C@H]3CC[C@]12C",
    "inhibition at 100 µg/mL / %": 92
  },
  {
    "TEST_SMILES": "CC(=O)O[C@@H]1CC[C@]2(C)[C@H]3CC[C@]4(C)[C@@H]([C@H](C)CCC(=O)O)CC[C@H]4[C@@H]3C[C@H](OC(C)=O)[C@@H]2C1",
    "inhibition at 100 µg/mL / %": 97
  },
  {
    "TEST_SMILES": "C[C@H](CCC(=O)O)[C@H]1CC[C@H]2[C@@H]3C[C@H](O)[C@@H]4C[C@H](O)CC[C@]4(C)[C@H]3CC[C@]12C",
    "inhibition at 100 µg/mL / %": 97
  },
  {
    "TEST_SMILES": "C[C@H](CCC(=O)O)[C@H]1CC[C@H]2[C@@H]3CC[C@@H]4C[C@H](O)CC[C@]4(C)[C@H]3C[C@H](O)[C@]12C",
    "inhibition at 100 µg/mL / %": 100
  }
]
